System: Streptococcus spp. spontaneous mutants
Experiment: organism not typed
Assay type: cell-based
Conditions: S. pyogenes ATCC 49399; selected on rifaximin 8X MIC; Colony A
Give log10 MIC for every item shown.
In our notation, the value equals log10 of MIC in µg/mL.

Consider the compound shown here: `CC[C@H]1OC(=O)[C@H](C)[C@@H](O[C@H]2C[C@@](C)(OC)[C@@H](O)[C@H](C)O2)[C@H](C)[C@@H](O[C@@H]2O[C@H](C)C[C@H](N(C)C)[C@H]2O)[C@](C)(O)C[C@@H](C)CN(C)[C@H](C)[C@@H](O)[C@]1(C)O` What is its recorded log10 MIC? -1.22

Consider the compound shown here: `CO/N=C(\C(=O)N[C@@H]1C(=O)N2C(C(=O)O)=C(CSc3nc(=O)c(=O)[nH]n3C)CS[C@H]12)c1csc(N)n1` What is its recorded log10 MIC? -1.82

Consider the compound shown here: `C[C@@H](O)[C@H]1C(=O)N2C(C(=O)O)=C(S[C@@H]3CN[C@H](C(=O)N(C)C)C3)[C@H](C)[C@H]12` What is its recorded log10 MIC? -2.40

Consider the compound shown here: `COc1c(N2C[C@@H]3CCCN[C@@H]3C2)c(F)cc2c(=O)c(C(=O)O)cn(C3CC3)c12` What is its recorded log10 MIC? -1.22

Consider the compound shown here: `CN(C)[C@@H]1C(O)=C(C(N)=O)C(=O)[C@@]2(O)C(O)=C3C(=O)c4c(O)cccc4[C@@](C)(O)[C@H]3C[C@@H]12` What is its recorded log10 MIC? -0.92

Consider the compound shown here: `CCC[C@@H]1C[C@@H](C(=O)N[C@@H]([C@H]2O[C@H](SC)[C@H](O)[C@@H](O)[C@H]2O)[C@H](C)Cl)N(C)C1` What is its recorded log10 MIC? -1.52

---

Test system: Staphylococcus aureus
Experiment: Broth microdilution MIC, 50 clinical isolates (28 MRSA)
Format: cell-based
Settings: Staphylococcus aureus; read-out: MIC90
observable: MIC90

Consider the molecule shown here: `Cc1onc(-c2ccccc2)c1C(=O)N[C@@H]1C(=O)N2[C@@H]1SC(C)(C)[C@@H]2C(=O)O` What is its recorded MIC90? > 16 µg/mL

Consider the molecule shown here: `C[C@@H](O)[C@H]1C(=O)N2C(C(=O)O)=C(S[C@@H]3CN[C@H](C(=O)N(C)C)C3)[C@H](C)[C@H]12` What is its recorded MIC90? 8 µg/mL

Consider the molecule shown here: `COc1c(N2C[C@@H]3CCCN[C@@H]3C2)c(F)cc2c(=O)c(C(=O)O)cn(C3CC3)c12` What is its recorded MIC90? 2 µg/mL

Consider the molecule shown here: `CO/N=C(\C(=O)N[C@@H]1C(=O)N2C(C(=O)O)=C(CSc3nc(=O)c(=O)[nH]n3C)CS[C@H]12)c1csc(N)n1` What is its recorded MIC90? > 64 µg/mL

---

Test system: Bacteroides spp. spontaneous mutants
Assay: Broth microdilution MIC of spontaneous mutants
Type: cell-based
Conditions: B. ovatus MMX 3503; selected on rifaximin 4X MIC; Colony A
Give MIC for every item shown.
The reply should be a number in µg/mL, with the unit left off.

Short answer please: MIC, Bacteroides spp. spontaneous mutants, entry `CCC[C@@H]1C[C@@H](C(=O)N[C@@H]([C@H]2O[C@H](SC)[C@H](O)[C@@H](O)[C@H]2O)[C@H](C)Cl)N(C)C1` 1

Short answer please: MIC, Bacteroides spp. spontaneous mutants, entry `Cc1ncc([N+](=O)[O-])n1CCO` 2

Short answer please: MIC, Bacteroides spp. spontaneous mutants, entry `COc1c(N2C[C@@H]3CCCN[C@@H]3C2)c(F)cc2c(=O)c(C(=O)O)cn(C3CC3)c12` 2
